experimental_details: yeast display, Sf9 membrane polyspecificity reagent, FACS + sequencing; frameworks hold sequencing errors
measured_endpoint: polyreactivity (PSR sort gate)

Example sequences with recorded polyreactivity (PSR sort gate):
QVKLVESGGGLVQAGGSLRLSCAASGSTFYQNAMGWYRQAQGKEREFVAAISGSGDRTNYADSVKARFTISRDNAKNTVYLQMNSLKPEDTAVYFCAARGQPGRRTSSGFFSGGYCGQGTQVTVSS ... high polyreactivity
QVQLVESGGGLVQAGGSLRLSCAASGRTFAWYAMGWYRQAPGKERELVAAITTRGSGTYYADSVKGRFTISRDNAKNTVYLQMNSLKPEDTAVYYCAKDPITATTLDERVFYWGQGTQVTVSS ... low polyreactivity
QDHLVESGGGLVQAGGSLRLSCAASGNIIWWNAMGWYRQAPGKERELVAAITSDSTTYYADSVKGRFTISRDNAKNTVYLQLNSLKPEDTAVYYCAAYSYGGQGVDYGYWGQGTQVTVSS ... low polyreactivity
QVQLVESGGGLVQAGGSLRLSCAASGRTFYKYGMGWYRQAPGKERELVASISSGGNTYYADSVKGRFTISRDNAKNTVYLQMNSLKPEDTAVYYCNAGYWAKFDYWGQGTQVTVSS ... high polyreactivity
QVQLVESGGGLVQAGGSLRLSCAAYGSIFALYAMGWYRPAPGKERELVARISSGGSTYYADSVKGRFTISRDNAKNTVYLQMNSLKPEDTAVYYCARYHKTHAVLRYDYWGQGTQVTVSS ... low polyreactivity

IN: I am curious: what polyreactivity (PSR sort gate) value has been reported for `QVQLGESGGGLVQAVGSLRLSCAASGITFGENAMGWSRQADGKERELVAAITSGGSTDYADSVKGRFTISRDNAKNSVYLQMYCLKPEDTAVYYWAAEAVAYYGSSYGYWGQGTQVTVSS` ?
OUT: low polyreactivity

IN: Please answer likewise for `QVQLVESGGGLVQAGGSLRLSCAASGNIFLYYAMGWYRQAPGKERELVADIDASGASTYYADSVKGRFTIARDNAKKTVYLQLNSLTPEDTAVYYCAAEFHWWYAGYDYGYWGQGTQVTVSS`
OUT: low polyreactivity

IN: Please answer likewise for `QVQLVESGGGLVQAGGSLRLSCAASGRIFGVNAMGWYRQAPGKERELVAAISSNGGRTYYADSVKGRFTISRDNAKNTVYLQMNSLKPEDTAVYYCATRSSVGARHYYWGQGTQVTVSS`
OUT: high polyreactivity

IN: Please answer likewise for `QVQLVESGGGLVQAGGSLRLSCAASGRTFYRNAMGWYRQAPGKERELVAGITRGGRTYYADSVKGRFTISRDNAKNTVYLQMNSLKPEDTAVYYCAKGRSWQIYYKGGIKGGYWGQGTQVTVSS`
OUT: low polyreactivity

IN: Please answer likewise for `QDQLVESGGGLVQAGGSLRLSCAASGSILAYNAMGWYRQAPGKERQLVAAIRLSGGSTYYADSVKGRFTISRDNAKNTVYLQMNSLKPEDTAVYYCARRYYRYDTRKYNYWGQGTQVSVSS`
OUT: high polyreactivity

###

experimental_details: yeast display, Sf9 membrane polyspecificity reagent, FACS + sequencing; frameworks hold sequencing errors
measured_endpoint: polyreactivity (PSR sort gate)

Example sequences with recorded polyreactivity (PSR sort gate):
QVQLVESGGGLVQAGGSLRLSCAASGSIFGFYMGWYRQAPGKERELVAAISGSGGNTYYADSVKGRFTISRDNAKNTVYLQMNSLKPEDTAVYYCAVRYPGSRYLISKNGYWGQGTQVTVSS ... high polyreactivity
QVQLVESGGGLVQAGGSLRLSCAASGSTFVNYAMGWYRQAPGKERELVAAITANGGRTYYADSVKGRFTISRDNAKNTVYLQMNSLKPEDTAVYYCNTESNLYRRRRNYWGQGTQVTVSS ... low polyreactivity
QVQLVESGGGLVEAGGSLRLSCAASGAIFQYAMGWYRQAPGKERELVAGITYRGSTYYADSVKGRFTISRDNAKNTVYLQMNSMKPEDTAVYDCAALQRGFGYRPRRWSYDYWGQGTQVTVSS ... high polyreactivity
QVQLVESGGGLVQAGGSLRLSCAASGFIFARYAMGWYRQAPGKERELVAAISSSGGITYYADSVKGRFTISRDNAKNTVYFQMNSLKPEDTAVYYCAAPLGGGARWGRWWLYDSWGQGTQVTVSS ... low polyreactivity
QVQLVESGGGLVQAGGSLRLSCAASGRTFVTYAMGWYRQAPGKERELVAAISASGGSTYYADSVKGRFTISRDNAKNTVYLQMNSLKTEDTAVYYCAKTYFLATPYGYWGQGTQVTVSS ... low polyreactivity
QVQLVESGGGLVQAGGSLRLSCAASGITFYINGMGWYRQAPGKEREFVAAIYDGVNTYYADSVKGRFTISRDNAKNTVYLQMNSLKPEDTAVYYCAADYPPARWEMEYWGQGTQVTVSS ... low polyreactivity
QVQLVESGGGLVQAGGSLRLSCAASGITFYYYAMGWYRQAPGKERELVADISSSGGSTYYADSVKGRFTISRDNAKNTVYLQMNSLKPEDTAVYYCNAVYRWYRPRVRFFRYDYWGQGTQVTVSS ... high polyreactivity
QVQLVESGGGLVQAGGSLRLSCAASGRTFWYNTMGWYRQAPGKERELVAAISTGGSTNYADSVKGRFTISRDNAKNTVYLQMNSLIPEDTAVYYCAALIYYWSGRPRFDQARDYDYWGQGTQVTVSS ... low polyreactivity
QVQLVESGGGLVQAGGSLRLSCAASGSTFSTNAMGWYRQAPGKERELVAAIRWRGGRTYYADSVKGRFTISRDNAKNTVYLQMNSLKPEDTAVYYCAADYSFTGHRYTYGYWGQGTQVTVSS ... high polyreactivity
QVQIVESGGGLVQAGGSLRLSCSASGNIFYKYAMGWFRQAPGKERELVAAITWRVVRTYYADSVKGRFTISRDNAKNTVYLQMNSLKPEDTAVYYCAALSRQSGDYWGQGTQLTVSS ... high polyreactivity

Now take the following sequence into account.
IN: I am curious: what polyreactivity (PSR sort gate) value has been reported for `QVQLVESGGGLFQAGGSHRLSCAATGINFSEYAMGWYRQAPGKERELVAAISKSSGSTRYADSVKGRFTISRDNAKNTVFLQMNSLNPEDTAVYYCAARQYGPRYTYYYWGQGTQVTVSS` ?
OUT: high polyreactivity
